The reported numbers originate from patent US12691070B2.

- PROTOCOL: LNP zeta potential (Zetasizer)
- Type: physicochemical
- CONDITION SUMMARY: LNP with cirRNA (SEQ ID NO: 1)
As shown below, each of these compounds has a reported Zeta (mV) value.
OBSERVABLE: Zeta (mV)

compound="CCCCCCCCC(CCCCCC)C(=O)OCCCCCCCCN(CCCCCCCCOC(=O)C(CCCCCC)CCCCCCCC)CCCOC(=O)NCCN1CCCCC1 (stereo not drawn)" value_unit=mV observed_value=−2.171
compound=CCCCCCCCCCCOC(=O)CCCCCN(CCCCCCCC(=O)OC(CCCCCCCC)CCCCCCCC)CCOC(=O)NCCN(C)C value_unit=mV observed_value=6.058
compound="CCCCCCCCCCC(CCCCCCCC)COC(=O)CCCCCN(CCCCCCCCOC(=O)C(CCCCCC)CCCCCCCC)CCCOC(=O)NCCN(C)C (stereo not drawn)" value_unit=mV observed_value=0.2395
compound="CCCCCCCCCCC(CCCCCCCC)COC(=O)CCCCCN(CCCCCCCCOC(=O)C(CCCCCC)CCCCCCCC)CCOC(=O)NCCN(C)C (stereo not drawn)" value_unit=mV observed_value=−0.71
compound="CCCCCCCCCCC(CCCCCCCC)COC(=O)CCCCCN(CCCCCC(=O)OCC(CCCCCCCC)CCCCCCCCCC)CCCOC(=O)NCCNC(C)C (stereo not drawn)" value_unit=mV observed_value=3.421
compound=CCCCC/C=C\C/C=C\CCCCCCCCN(CCCCCCCC(=O)OC(CCCCCCCC)CCCCCCCC)CCCOC(=O)NCCN1CCOCC1 value_unit=mV observed_value=−2.714
compound="CCCCCCCCCC(=O)OCCCCCCCN(CCCCCCCCOC(=O)C(CCCCCC)CCCCCCCC)CCOC(=O)NCCN1CCCCC1 (stereo not drawn)" value_unit=mV observed_value=0.4256
compound="CCCCC/C=C\\CCOC(=O)CCCCCN(CCCCCCCCOC(=O)C(CCCCCC)CCCCCCCC)CCOC(=O)NCCCN(CC)CC (stereo not drawn)" value_unit=mV observed_value=14.31
compound="CCCCCCCCCCC(CCCCCCCC)COC(=O)CCCCCN(CCCCCC(=O)OCC(CCCCCCCC)CCCCCCCCCC)CCOC(=O)NCCN1CCCC1 (stereo not drawn)" value_unit=mV observed_value=−0.573
compound="CCCCC/C=C\\C/C=C\\CCCCCCCCN(CCCCCCCC/C=C\\C/C=C\\CCCCC)CCOC(=O)CCCN(C)C [Lipid A, reference compound]" value_unit=mV observed_value=1.916
compound="CCCCCCCCC(CCCCCC)C(=O)OCCCCCCCCN(CCCCCCCCOC(=O)C(CCCCCC)CCCCCCCC)CCOC(=O)NCc1ccc(NC(=O)OC(C)(C)C)cc1 (stereo not drawn)" value_unit=mV observed_value=−20.4
compound="CCCCCCCCC(CCCCCC)C(=O)OCCCCCCCCN(CCCCCCCCOC(=O)C(CCCCCC)CCCCCCCC)CCCNCCN(C)C (stereo not drawn)" value_unit=mV observed_value=8.213
compound="CCCCCCCCC(CCCCCCCC)OC(=O)CCCCCCCN(CCCCCCCCOC(=O)C(CCCCCC)CCCCCCCC)CCCOC(=O)NCCCN(C)C (stereo not drawn)" value_unit=mV observed_value=1.734
compound=CCCCC/C=C\C/C=C\CCCCCCCCN(CCCCCCCC(=O)OC(CCCCCCCC)CCCCCCCC)CCCOC(=O)NCc1ncc[nH]1 value_unit=mV observed_value=0.345
compound="CCCCCCCCC(CCCCCC)C(=O)OCCCCCCCCN(CCCCCCCCOC(=O)C(CCCCCC)CCCCCCCC)CCOC(=O)NCCN(C)C (stereo not drawn)" value_unit=mV observed_value=−2.24
compound="CCCCC/C=C\\CCOC(=O)CCCCCN(CCCCCCCCOC(=O)C(CCCCCC)CCCCCCCC)CCOC(=O)NCCN1CCCCC1 (stereo not drawn)" value_unit=mV observed_value=−7.77
compound="CCCCCCCC/C=C\\CCCCCCCCN(CCCCCCCCOC(=O)C(CCCCCC)CCCCCCCC)CCOC(=O)NCCCn1ccnc1 (stereo not drawn)" value_unit=mV observed_value=1.061
compound=CCCCC/C=C\C/C=C\CCCCCCCCN(CCCCCCCC/C=C\C/C=C\CCCCC)CCOC(=O)NCCN(C)C value_unit=mV observed_value=5.74
compound="CCCCCCCCC(CCCCCC)C(=O)OCCCCCCCCN(CCCCCCCCOC(=O)C(CCCCCC)CCCCCCCC)CCCOC(=O)NCCN1CCN(C)CC1 (stereo not drawn)" value_unit=mV observed_value=2.594
compound="CCCCCCCCCCC(CCCCCCCC)COC(=O)CCCCCN(CCCCCC(=O)OCC(CCCCCCCC)CCCCCCCCCC)CCOC(=O)NCCN(C)C (stereo not drawn)" value_unit=mV observed_value=−0.455
compound=CCCCCCCCCCCOC(=O)CCCCCN(CCCCCC(=O)OCCCCCCCCCCC)CCOC(=O)NCc1ncc[nH]1 value_unit=mV observed_value=15.16
